B1: Ankyrin-3, residues 4094 to 4171; numbered along this chain, Q12955 (parent)
chain: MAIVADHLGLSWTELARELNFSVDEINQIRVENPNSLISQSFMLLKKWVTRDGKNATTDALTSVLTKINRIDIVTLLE

Variants of: B1
experiment_description: abundance fitness (aPCA) (normalised: wild type 0, dead -1); higher = more abundant; growth selection in yeast, the domain comes from the species named
condition: Homo sapiens
reported_metric: abundance fitness
Write the number on its own, no unit after it.

# mutant_name, abundance fitness
data = [
    ("G53W", -0.849),
    ("E78W", -0.649),
    ("A5Y", -0.745),
    ("D52P", -0.767),
]

### Prompt For the variant shown here, `S41P` , give the reported abundance fitness.
### Response -0.972

### Prompt One more variant: `D24W`
### Response -0.435

### Prompt Follow-up item: `R51W`
### Response -0.503

### Prompt Try the variant `Q28W`
### Response -0.768

### Prompt Query `E32C` next
### Response -0.249

### Prompt Can you check `N69H` next?
### Response -0.308

### Prompt Can you check `D52Q` next?
### Response -0.359
